ASSAYED_TARGET: Beta-1 adrenergic receptor (Cavia porcellus, UniProt B0FL73)
Sequence (B0FL73 whole entry): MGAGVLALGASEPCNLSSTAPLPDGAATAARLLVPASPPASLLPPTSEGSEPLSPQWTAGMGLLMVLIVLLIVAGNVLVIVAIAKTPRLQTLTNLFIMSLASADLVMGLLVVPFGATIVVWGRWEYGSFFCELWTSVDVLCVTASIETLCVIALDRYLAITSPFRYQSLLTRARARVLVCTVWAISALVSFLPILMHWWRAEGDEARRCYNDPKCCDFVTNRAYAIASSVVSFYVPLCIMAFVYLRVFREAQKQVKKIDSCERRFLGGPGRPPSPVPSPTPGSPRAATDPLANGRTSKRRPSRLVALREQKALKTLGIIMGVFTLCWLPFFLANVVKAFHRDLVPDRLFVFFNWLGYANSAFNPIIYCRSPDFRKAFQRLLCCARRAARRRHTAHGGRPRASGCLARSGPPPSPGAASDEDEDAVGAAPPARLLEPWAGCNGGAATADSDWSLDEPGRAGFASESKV
ASSAY_METHOD_TEXT: Agonistic activity against Beta-1 adrenergic receptor in guinea pig atrium
Assay type: functional, tissue-based, Cardiac atrium
pEC50: −log10 of the molar value.
MEASUREMENT_KIND: pEC50

Need pEC50 of `O=C(O)C1(C(=O)O)Oc2cc3c(cc2O1)C[C@@H](NC[C@H](O)c1cccc(Cl)c1)CCC3` , thanks.
< 5.00
